target: RET (658-1114) (Homo sapiens); construct: 658-1114; expressed in transfected cells; host or cells: 293T.144 (293T cells, generated in-house); test: HiBiT-Degradation, RET wild-type degradation assay (Nano-Glo HiBiT Lytic), 293T.144 cells; assay type: cell-based; settings: HiBiT-Degradation, 6.0 hours, read-out: 293T.144 RET (658-1114) 6.0 hours (Emax)
Sequence (P07949 658-1114): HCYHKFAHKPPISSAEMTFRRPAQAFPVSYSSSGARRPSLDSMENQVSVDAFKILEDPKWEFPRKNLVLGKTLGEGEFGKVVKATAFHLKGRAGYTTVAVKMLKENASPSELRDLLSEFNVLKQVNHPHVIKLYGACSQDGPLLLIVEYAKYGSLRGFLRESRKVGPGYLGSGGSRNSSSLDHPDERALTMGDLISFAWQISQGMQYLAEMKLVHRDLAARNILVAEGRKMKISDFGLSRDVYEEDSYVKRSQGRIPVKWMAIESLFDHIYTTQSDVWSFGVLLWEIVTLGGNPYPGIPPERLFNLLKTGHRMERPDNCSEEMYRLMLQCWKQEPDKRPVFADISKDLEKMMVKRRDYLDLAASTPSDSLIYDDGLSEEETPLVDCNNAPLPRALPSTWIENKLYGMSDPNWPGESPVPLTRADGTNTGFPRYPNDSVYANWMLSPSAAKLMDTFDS
Task for the reader: assign each of the following compounds its reported Emax.

Look over these answered cases.
[[record]]
compound = "CCC1(C(=O)NC(C)C)CCN(c2ccc(-c3cc(-c4ccc(N5CCN(C(=O)CN6CCC(c7ccc8c(N9CCC(=O)NC9=O)nn(C)c8c7)CC6)CC5)cc4)cn4ncc(C#N)c34)cn2)CC1 [Compound 64]"
endpoint_label = "Emax"
reported_result = "< 30%"

[[record]]
compound = "CC(C)NC(=O)C1(C)CCN(c2ccc(-c3cc(-c4ccc(N5CCN(C(=O)CN6CCC(c7ccc(NC8CCC(=O)NC8=O)cc7F)CC6)CC5)cc4)cn4ncc(C#N)c34)cn2)CC1 (stereo not drawn) [Compound 45]"
endpoint_label = "Emax"
reported_result = "< 30%"


Kindly consider the entry below.
Ask | Name the recorded Emax of the compound listed here: CCC1(C(=O)NC(C)C)CCN(c2ccc(-c3nc(-c4cnn(C5CCN(C(=O)CC6(O)CCN(c7ccc(N[C@@H]8CCC(=O)NC8=O)cc7Cl)CC6)CC5)c4)cn4ncc(C#N)c34)cn2)CC1 (single isomer, unassigned) [Compound 11]
Reply | < 30%
